target: IKBKE (human) (UniProt Q14164); test: Caliper, Mobility shift assay off-chip; settings: compound 0.2 µM
Sequence (Q14164 whole entry, looked up): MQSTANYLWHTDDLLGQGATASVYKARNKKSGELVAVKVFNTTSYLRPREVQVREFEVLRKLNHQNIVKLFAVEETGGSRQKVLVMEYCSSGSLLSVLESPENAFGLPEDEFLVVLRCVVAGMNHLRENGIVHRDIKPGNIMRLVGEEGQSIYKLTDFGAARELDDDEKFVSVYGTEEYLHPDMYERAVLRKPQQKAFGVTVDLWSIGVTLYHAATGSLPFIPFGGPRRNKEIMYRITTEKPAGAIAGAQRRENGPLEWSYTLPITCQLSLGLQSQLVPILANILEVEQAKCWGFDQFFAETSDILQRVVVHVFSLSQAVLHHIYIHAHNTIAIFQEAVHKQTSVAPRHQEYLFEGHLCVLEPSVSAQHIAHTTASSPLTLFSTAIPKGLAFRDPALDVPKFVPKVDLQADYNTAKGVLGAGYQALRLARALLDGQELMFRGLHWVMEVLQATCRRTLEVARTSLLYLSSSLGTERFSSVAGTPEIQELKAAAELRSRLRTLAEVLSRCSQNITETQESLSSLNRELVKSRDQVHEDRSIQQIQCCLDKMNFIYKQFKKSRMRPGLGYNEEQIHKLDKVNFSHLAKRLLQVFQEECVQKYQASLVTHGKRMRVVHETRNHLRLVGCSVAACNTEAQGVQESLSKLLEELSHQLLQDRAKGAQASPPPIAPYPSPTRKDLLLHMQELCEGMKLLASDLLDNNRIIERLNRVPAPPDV
measurement_name: inhibition (%)

* CNC(=O)c1cc(Oc2ccc(NC(=O)Nc3ccc(Cl)c(C(F)(F)F)c3)cc2)ccn1 | -4.7
* Cc1ccc(Nc2nccc(N(C)c3ccc4c(C)n(C)nc4c3)n2)cc1S(N)(=O)=O | -7.1
* CCN(CC)CCNC(=O)c1c(C)[nH]c(/C=C2\C(=O)Nc3ccc(F)cc32)c1C | 11.9
* COc1cc2c(Oc3ccc4[nH]c(C)cc4c3F)ncnc2cc1OCCCN1CCCC1 | -5.1

---

target: EPHA7 (human); experiment: Caliper, Mobility shift assay off-chip; settings: compound 0.2 µM
measurement_name: inhibition (%)

* CCN(CC)CCNC(=O)c1c(C)[nH]c(/C=C2\C(=O)Nc3ccc(F)cc32)c1C | 19.8
* CNC(=O)c1cc(Oc2ccc(NC(=O)Nc3ccc(Cl)c(C(F)(F)F)c3)cc2)ccn1 | 26.5
* Cc1ccc(Nc2nccc(N(C)c3ccc4c(C)n(C)nc4c3)n2)cc1S(N)(=O)=O | 1.7
* COc1cc2c(Oc3ccc4[nH]c(C)cc4c3F)ncnc2cc1OCCCN1CCCC1 | 23.5

src = the kinase profiling compilation of Christmann-Franck et al. (2016)
